meta.source: PubChem BioAssay (NCI)

System: SR leukemia
assay_procedure: NCI tumour cell line growth inhibition, 48 h
property: TGI

1) Cn1ccnc1CCc1c(Cl)cccc1Cl: > 100 µM
2) COc1cccc(-c2nc3cc(NC(=O)c4ccc(Cl)c(C#N)c4)ccc3o2)c1: > 100 µM
3) C[C@@]1(O)C2CC3CC1(c1ccccc1)CC(/C3=N/O)/C2=N\O (some centres not stated): > 100 µM
4) C/C(CC(O)(C(F)(F)F)C(F)(F)F)=N\NC(N)=O: > 10 µM
5) O=C1[C@H](O)[C@@H]2C(O)O[C@H]3[C@@H]2N1C[C@H]3[Si](c1ccccc1)(c1ccccc1)c1ccccc1 (some centres not stated): > 100 µM
6) O=c1[nH]c2nc3ccccc3c(=O)n2/c1=C/c1ccc(Cl)cc1: > 100 µM
7) c1ccc(-c2nc(-c3ccccn3)nc(-c3ccccn3)n2)nc1: > 100 µM
8) OC1[C@@H]2[C@@H](O)CCCN2C[C@@H](O)[C@H]1O (some centres not stated): > 100 µM
9) C=CCc1c(Cl)nc(Cl)nc1Cl: > 100 µM
10) CCOC(=O)NC(=O)c1cn(CCN2CCN(C(=O)NCCCCCCNC(=O)N3CCN(CCn4cc(C(=O)NC(=O)OCC)c(=O)[nH]c4=O)CC3)CC2)c(=O)[nH]c1=O: > 100 µM
11) CC(=O)c1c(C(F)(F)F)n([O-])c2ccccc2[n+]1=O: 2.3 µM
12) O=c1cc(-c2cccs2)[nH]c2cc3c(cc12)OCO3: > 100 µM
13) O=C1C=CC(=O)c2c1ccc1c3ccccc3n(Cc3ccc([N+](=O)[O-])cc3)c21: 37.3 µM
14) O=c1[nH]c(Nc2ccccc2)nc2c1ncn2CC(O)CSCCO (configuration not stated): > 100 µM
15) COc1ccc(N2C(=O)C3c4[nH]c5ccc(OCc6ccccc6)cc5c4C4CCC(c5ccccc5)CC4C3C2=O)cc1 (configuration not stated): 7.14 µM
16) CNC(=S)Nc1ccc(OC)c2ccccc12: > 10 µM
17) CC1CC[C@@]2(OC1)OC1C[C@H]3[C@@H]4CC=C5CC(OC6OC(CO)C(OC7OC(CO)C(O)C(OC8OCC(O)C(O)C8O)C7OC7OC(CO)C(OC8OC(C)C(OC9OC(C)C(O)C(O)C9O)C(O)C8O)C(O)C7O)C(O)C6O)CCC5(C)[C@H]4CCC3(C)C1[C@@H]2C (some centres not stated): 50 µM
18) O=c1[nH]cc(NCCCl)c(=O)[nH]1: > 100 µM
19) N#CCCN(CCC#N)c1ccc(/C=C2\N=C(c3ccccc3)N(c3ccc(F)cc3)C2=O)cc1: > 100 µM
20) CO/N=C(\COc1ccc2c(c1)[nH]c1ccccc12)c1ccc(OC)cc1: > 100 µM
21) CC(=O)O[C@H]1CC(C)(C)C(=C=C/C(C)=C/C=C/C=C/C=C(C)/C=C2C=C(/C=C/[C@@]34O[C@]3(C)C[C@@H](O)CC4(C)C)C(=O)O/2)[C@](C)(O)C1: 74.8 µM
22) COc1cc2c(c(O)c1O)C(=O)C1CCC(=O)N1C2c1cccc2ccccc12 (configuration not stated): > 50 µM
23) O=C(Nc1ccccc1)N(C1=NCC(CI)S1)c1ccc(F)c(F)c1 (configuration not stated): > 100 µM
24) C[C@H](c1ccccc1)N1C(=O)[C@@H](O)[C@H]1[C@H](CO)OCc1ccccc1: > 100 µM
25) O=C(O)CCc1nc2c(n1-c1ccccc1)C(=O)c1ccccc1C2=O: > 100 µM
26) COc1cc(/C=C/C(=O)c2c(C)nc3ccccc3c2/C=C/c2ccccc2)cc(OC)c1OC: 6.54 µM
27) O=C1C2C3C=C4c5ccccc5N(c5ccccc5)C4(C2C(=O)N1c1ccccc1)C1C(=O)N(c2ccccc2)C(=O)C31 (configuration not stated): > 100 µM
